method_notes: folding enthalpy; higher = less favourable; fluorescence melt of hairpins on a sequencing array, two-state fit
particulars: sodium 0.088 M
Label Fulfilled when folding enthalpy >= -30 kcal/mol; otherwise Not fulfilled.

Past entries and their recorded results:
* GCGGTGCGAAAGCTCGGC ((.(.((....)).).)) | Fulfilled
* CGAGCGGAAACGCGCTCG ((((((....)))..))) | Fulfilled

Then this sequence:
Is it the case that CGCGGAACGATCCGCG ((((((....)))))) has folding enthalpy reaching or exceeding -30 kcal/mol? Not fulfilled

---

method_notes: melting temperature; fluorescence melt of hairpins on a sequencing array, two-state fit, raised by 9.35 °C to match UV melts
particulars: sodium 0.088 M
observed_property: Tm (°C)
Give just the number in °C; leave the unit off.

* GCTGGCGGAAACGCCAAC (.(((((....))))).) | 43.7
* GACTCTGGAAACAGGGTC (((.(((....))).))) | 49.4
* GCACTCGGAAACGGGTGC ((((.((....)).)))) | 59.5
* GCGGAACTCCGC ((((....)))) | 54.9
* GCTACGCGAAAGCCAAGC (((..((....))..))) | 34.9
* GCTGAGCGAAAGCCCCGC ((.(.((....)).).)) | 35.8
* GATCGAAAATCGATC ((((((...)))))) | 47.6
* GACTGCGGAAACGTGGTC (((..((....))..))) | 46.5

Answer with the recorded Tm for the sequence listed here: GCCTCTGGAAACAGGGGC (((.(((....))).))) 57.4

Answer with the recorded Tm for the sequence listed here: GATCTGCACCAGATC ((((((...)))))) 47.9

Answer with the recorded Tm for the sequence listed here: GCAAGGCGAAAGCTTTGC ((((.((....)).)))) 63.9

Answer with the recorded Tm for the sequence listed here: CGGCGCGGAAACGCCCG (((.(((....)))))) 56.5

Answer with the recorded Tm for the sequence listed here: GATCGCCTCTGCGATC ((((((....)))))) 66.5

Answer with the recorded Tm for the sequence listed here: GCAATCGAAAGATTGTGC ((((((....)))..))) 51.1

Answer with the recorded Tm for the sequence listed here: TGTTGGAAACAACA (((((....))))) 42.9

Answer with the recorded Tm for the sequence listed here: GATTGTGGAAACACAATC (((((((....))))))) 56.8

Answer with the recorded Tm for the sequence listed here: GATCTAGATCTAGATC ((((((....)))))) 47.5

Answer with the recorded Tm for the sequence listed here: GCGTGTCGAAAGACCGC (((.(((....)))))) 67

Answer with the recorded Tm for the sequence listed here: GTGGTAGGAAACCACCAC (((((.(....).))))) 49.4

Answer with the recorded Tm for the sequence listed here: GCGCTTGGAAACAAGTGC ((.((((....)))).)) 56.9

Answer with the recorded Tm for the sequence listed here: GGGCCCCGAAAGGGTCCC (((.(((....))).))) 65.2

Answer with the recorded Tm for the sequence listed here: GATCATTTTCATGATC ((((((....)))))) 47.6

Answer with the recorded Tm for the sequence listed here: GGGCTCGGAAACGGGCTC (.((.((....)).)).) 49.6

Answer with the recorded Tm for the sequence listed here: GGCCGCGAAAGCGTCGCC ((((((....)))..))) 55.9

Answer with the recorded Tm for the sequence listed here: GCTTAGGGAAACCTGAGC (((.(((....))).))) 46.7

---

method_notes: folding enthalpy; higher = less favourable; fluorescence melt of hairpins on a sequencing array, two-state fit
particulars: sodium 0.088 M
Label 1 when folding enthalpy >= -20 kcal/mol; otherwise -1.

- GCACGGGGAAACCCATGC (((.(((....))).))): -1
- GGTCCTCGAAAGAGCACC (((.(((....))).))): -1
- GCTCTCGAAAGAGTGAGC ((((((....)))..))): -1
- GATCTTGATGAAGATC ((((((....)))))): -1
- GGTCCAGGAAACCAGACC ((((..(....)..)))): -1
- GCTCGGCGAAAGCCCTGC ((..(((....)))..)): 1

Is it the case that GGGGTATCGAAAGATCCC (((..(((....)))))) has folding enthalpy reaching or exceeding -20 kcal/mol? -1

Is it the case that GGGTACGGAAACATACCC (((((.(....).))))) has folding enthalpy reaching or exceeding -20 kcal/mol? -1

Is it the case that GATCGAGTTGTCGATC ((((((....)))))) has folding enthalpy reaching or exceeding -20 kcal/mol? -1

Is it the case that GCCAAGGCGAAAGCCGGC (((..(((....)))))) has folding enthalpy reaching or exceeding -20 kcal/mol? 1

Is it the case that GCCTCGCGAAAGCCCGGC (((..((....))..))) has folding enthalpy reaching or exceeding -20 kcal/mol? 1

Is it the case that GTATCGGAAACGATAC ((((((....)))))) has folding enthalpy reaching or exceeding -20 kcal/mol? -1

---

Consider the following sequences and their measured folding enthalpy readings.
method_notes: folding enthalpy; higher = less favourable; fluorescence melt of hairpins on a sequencing array, two-state fit
particulars: sodium 0.088 M
Give just the number in kcal/mol; leave the unit off.

Worked examples, 5 sequences total:
• GCTGGGCGAAAGCACGGC ((.(.((....)).).)) = -21.2
• GATCAAATTGTTGATC ((((((....)))))) = -28.3
• GATCAGGACTCTGATC ((((((....)))))) = -40.6
• GATCGCTTTCGCGATC ((((((....)))))) = -38.4
• GACGCCGGAAACGACGCC (.((.((....)).)).) = -21.7

Now for the sequence whose folding enthalpy we want.
Answer with the recorded folding enthalpy for the sequence listed here: GCCACGCGAAAGCGGCGC ((..(((....)))..)) -15.9

---

method_notes: folding enthalpy; higher = less favourable; fluorescence melt of hairpins on a sequencing array, two-state fit
particulars: sodium 0.088 M
Classes (folding enthalpy): class A: < -30 kcal/mol; class B: ≥ -30 kcal/mol and < -20 kcal/mol; class C: ≥ -20 kcal/mol

• GACGGACGAAAGTCTGTC (((.(((....))).))) = class A
• GTAGGCTCGAAAGAGTAC (((..(((....)))))) = class C
• GCGATTCTCGC ((((...)))) = class B
• GATCAACGAGTTGATC ((((((....)))))) = class A
• GTCCCCGAAAGGGCTGAC ((((((....)))..))) = class C
• GATCCACCGGTGGATC ((((((....)))))) = class A
• GGCGTGACGAAAGTCGCC (((..(((....)))))) = class B
• GCGGTTCCGAAAGGACGC (((..(((....)))))) = class B

Then this sequence:
Given GATCGAAATTCGATC ((((((...)))))) , name the class its folding enthalpy places it in. class A

---

method_notes: melting temperature; fluorescence melt of hairpins on a sequencing array, two-state fit, raised by 9.35 °C to match UV melts
particulars: sodium 0.088 M
observed_property: Tm (°C)
Give just the number in °C; leave the unit off.

Worked examples, 5 sequences total:
- GAAGACGAAAGTCGATTC ((((((....)))..))): 47.4
- GCGGTAGCCCGC ((((....)))): 62
- GCTAACGAAAGTTGAGC ((((((....))).))): 41.5
- GTCTCAGGAAACCGAGAC (((((.(....).))))): 45.7
- GGCCTAGGAAACCAGGCC (((((.(....).))))): 53.9

Answer with the recorded Tm for the sequence listed here: GGCACGGGAAACCGCGCC (((.(((....))).))) 63.5

Answer with the recorded Tm for the sequence listed here: GTCCTCGAAAGAGGGAC ((((((....))).))) 53.9

Answer with the recorded Tm for the sequence listed here: GTACAGGGAAACTTGTGC (.(((.(....).))).) 27.9

Answer with the recorded Tm for the sequence listed here: GCTCGGCGAAAGCAGGGC ((.(.((....)).).)) 67.7

---

method_notes: melting temperature; fluorescence melt of hairpins on a sequencing array, two-state fit, raised by 9.35 °C to match UV melts
particulars: sodium 0.088 M
observed_property: Tm (°C)
Give just the number in °C; leave the unit off.

Worked examples, 5 sequences total:
* GCAAATGGAAACATCTGC (((.(((....))).))) | 33
* GCGAAGCGAAAGCTAGGC ((..(((....)))..)) | 40.9
* GGGCGGCGAAAGCCTCCC (((.(((....))).))) | 61.2
* GAAGGTGGAAACGCCTTC (((((.(....).))))) | 51.9
* GTTGGCCGAAAGGCGAAC (((.(((....))).))) | 57.4

Now for the sequence whose Tm we want.
Answer with the recorded Tm for the sequence listed here: GGGCTGCCGAAAGGCCCC (((..(((....)))))) 46.2
